- Assayed System: T1, recombinant human PACAP/VIP R-2 receptor (human)
- T1 chain: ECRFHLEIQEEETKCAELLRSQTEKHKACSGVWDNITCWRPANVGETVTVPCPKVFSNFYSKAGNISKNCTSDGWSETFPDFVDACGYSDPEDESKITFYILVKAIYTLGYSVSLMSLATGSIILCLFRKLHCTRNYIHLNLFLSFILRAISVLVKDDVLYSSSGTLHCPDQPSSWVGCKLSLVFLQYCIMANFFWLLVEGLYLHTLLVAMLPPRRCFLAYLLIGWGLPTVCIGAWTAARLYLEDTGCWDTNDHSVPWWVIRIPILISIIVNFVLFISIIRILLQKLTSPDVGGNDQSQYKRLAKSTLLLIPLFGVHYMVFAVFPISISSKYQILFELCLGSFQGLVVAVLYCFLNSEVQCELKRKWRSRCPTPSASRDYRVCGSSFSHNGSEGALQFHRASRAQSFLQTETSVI
- Assay Notes: competitive displacement of 125I-VIP (44 pM) on intact CHL cells expressing the receptor; complete displacement not obtainable
Observed Property: IC50

Task: Requested read-out: IC50. Entry: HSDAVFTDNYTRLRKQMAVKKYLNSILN (ligand) [vasoactive intestinal polypeptide (VIP)]
Output: ~5.8 nM
